Listed next: entries and their corresponding apparent KD of MS2 coat protein.
tested on: MS2 coat protein; test: apparent KD of MS2 coat protein; designed switch direction (-1 OFF switch, 1 ON switch): 1; higher = weaker reporter binding; conditions: input ligand: microRNA oligo, concentration not stated
Lab book: enter the figure in nM, no units written.

The cases that follow already have their apparent KD of MS2 coat protein on record.
chain_sequence="GAAUAGUUGAGAGGAUAUGUAUUAUUGUAGGAUACAGAAGGUUUUAACAUGAGGAUCACCCAUGUAGGACUAUAUAUGUGAAUA [Parity 98 - Jieux - Same State NG 1] (Eterna round: R96, puzzle: Same State NG 1)" measured_target="MS2 coat protein" experimental_endpoint="apparent KD of MS2 coat protein" recorded_measurement=11.7
chain_sequence="UUAAUCUGAACAUGAGGAUCACCCAUGUAUCUUAUUUUAGGACAGGAUAUAGAUGUUAAGAAUUACUAGAAGGGUCAGUAUAUU [JR_SSNG3_Sub011] (Eterna round: R96, puzzle: Same State NG 3)" measured_target="MS2 coat protein" experimental_endpoint="apparent KD of MS2 coat protein" recorded_measurement=20.2
chain_sequence="UGAUGCCCAUCAGGAUAUGGGCCCAUGAGGAUCACCCAUGUAAAGUAGGUCCAACAGGGCCAAGUCUAGAAGGGAUGGCGGGCA [malcolm 80 ssNG2 F5+F7.1] (Eterna round: R96, puzzle: Same State NG 2)" measured_target="MS2 coat protein" experimental_endpoint="apparent KD of MS2 coat protein" recorded_measurement=59.1
chain_sequence="AAAAUGAGUAUAUGAAAACAAGCUUUUUAACAUGAGGAUCACCCAUGUACUCGUCUUAUAAGCAGUCGAAAGACUGC [hsa-mir-208a sensor: 77] (Eterna round: R96, puzzle: Sensor for hsa-mir-208a)" measured_target="MS2 coat protein" experimental_endpoint="apparent KD of MS2 coat protein" recorded_measurement=17.2
chain_sequence="AUAGUUAGCAAAGGAUAUGGGAAAGGAAGUGUACCAGAAGGUUGGCUACUGGGCUUACAUGAGGAUCACCCAUGUCCCGGUAGC [PowerStrip SSNG 1.30] (Eterna round: R96, puzzle: Same State NG 1)" measured_target="MS2 coat protein" experimental_endpoint="apparent KD of MS2 coat protein" recorded_measurement=14.2

Problem: Lookup: apparent KD of MS2 coat protein / MS2 coat protein / UAAGUAUGUUGAGGAUAUUAUGUUUAGUGUGAUGACAUGAGGAUCACCCAUGUGUUAUGAGUUUUUAAGAAGGCAACAUACUUA [JR_SSNG2_Sub091] (Eterna round: R96, puzzle: Same State NG 2)
Solution: 41.7

Problem: Lookup: apparent KD of MS2 coat protein / MS2 coat protein / GCUACCAUUGAUGCCUACAUGAGGAUCACCCAUGUAUGUAGGCAGGAUAUCGAUUGCAAAGCGAUCGAGAAGGGCUUAGGUAGC [Mat - Same State NG 3 - JL Mod - D93] (Eterna round: R96, puzzle: Same State NG 3)
Solution: 103

Problem: Lookup: apparent KD of MS2 coat protein / MS2 coat protein / CGAAAGAGGUGAGGAUAUGCAGAGGAUCACCCUGUAGAAGGCAUCAGGUGAGGAUAUGCAGAGGAUCACCCUGUAGAAGGCAUC [pwkr ssNG DX.12] (Eterna round: R96, puzzle: Same State NG 1)
Solution: 336

Problem: Lookup: apparent KD of MS2 coat protein / MS2 coat protein / GUAGCAUACCGAGGAUAUUCAUAUUAUACAUGAGGAUCACCCAUGUUAGGCCGAUUACGGCCUUGGGAGAAGGCGGAAUGCUAC [Xeonanis - 20 Mod20] (Eterna round: R96, puzzle: Same State NG 2)
Solution: 53.3
